Each entry below carries its reported kon.
Molecular target: T1, cynomolgus monkey CD38 extracellular domain (ECD), tagged (cynomolgus monkey, Avitag biotinylated (in the ELISAs))
T1 construct: also called cynomolgus monkey CD38 ED
T1 chain: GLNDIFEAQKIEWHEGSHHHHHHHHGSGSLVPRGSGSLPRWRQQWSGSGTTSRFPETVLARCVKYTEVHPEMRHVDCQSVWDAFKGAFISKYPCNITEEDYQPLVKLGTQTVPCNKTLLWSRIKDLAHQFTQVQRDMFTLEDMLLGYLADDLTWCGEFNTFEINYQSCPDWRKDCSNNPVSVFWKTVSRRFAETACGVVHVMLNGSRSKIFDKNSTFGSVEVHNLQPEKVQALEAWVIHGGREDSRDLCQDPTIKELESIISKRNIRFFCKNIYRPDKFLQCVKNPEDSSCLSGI
Experiment: SPR (Biacore T200), antibody captured on Protein A, CD38 ED as analyte, 1:1 Langmuir fit;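 note: CM5 sensor chip in HBS-P buffer at pH 7.4, antibody loaded at 5 µg/mL, responses corrected against a blank reference flow cell before fitting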
I'd appreciate it if you wrote the number followed by its unit.

R5E8 IgG1 (antibody, V domains shown, chimeric rat-human IgG1) VH: EVQLQQSGPEVGRPGSSVKISCKASGYIFTDYIMHWVKQSPGQGLEWIGWIDPEYGSTDYAEKFKKKATLTADTSSSTAYIQLSSLTSEDTATYFCARVAIITTVASGGFAYWGQGTLVTVSS VL: DIVMTQGALPNPVPSGESASITCQSSESLLHSNGKTYLNWYLQRPGQSPQLLIYWMSTRAAGVSDRFSGSGSGTDFTLTISGVEAEDVGVYYCQQFLEYPPTFGSGTKLEIKR ... 452000 M⁻¹ s⁻¹
R10A2 IgG1 (antibody, V domains shown, chimeric rat-human IgG1) VH: EVQLQQSGPEVGRPGSSVKISCKASGYTFTDSVMNWVKQSPGQGLEWIGWIDPEYGRTDVAEKFKKKATLTADSSSSTAYIYLSGLTSEDTATYFCARTKYNSGYGFPYWGQGSLVTVSS VL: DIVMTQSPTSISISVGERVTMNCKASQNVDSDVDWYQQKTGQSPKLLIYKASNRYTGVPDRFTGSGSGTDFTFTISNMQAEDLAVYYCMQSNTHPRTFGGGTKLELKR ... 898000 M⁻¹ s⁻¹

--- query ---
Enquiry: Please indicate kon recorded for X355/02 IgG1 (antibody, V domains shown, human IgG1 from phage-derived Fab) VH: QLQLQESGPGLVKPSETLSLTCTVSGGSISSSSYYWSWIRQHPGKGLEWIGYIYYSGSTNYNPSLKSRVTISVDTLKNQISLRLTSVTAADTAVYYCARVGGAGGWPMDVWGQGTTVTVSS VL: QAVLTQPASLSASPGESARLTCTLPSDINVRYYNIYWYQQKPGSPPRYLLYYYSDSHKGQGSGVPSRFSGSKDVSTNSGILLISGLQSEDEADYYCMTWSSNGSGVFGGGTQLTVLG
Return: 83400 M⁻¹ s⁻¹
